These entries and their values trace back to ChEMBL document CHEMBL4814047.

Protocol: Selectivity index, ratio of CC50 for African green monkey Vero cells to MIC for multidrug resistance Mycobacterium tuberculosis 16995 clinical isolate
Type: toxicity
Test context: read-out: Selectivity Index
Quick reference for selectivity ratio among some compounds

Illustrative cases are given below, each with its answer.
>>> assay_value("O=c1nc(N2CCN(/N=C/c3ccc(OC(F)(F)F)cc3)CC2)sc2c([N+](=O)[O-])cc(C(F)(F)F)cc12")
"> 4000"
>>> assay_value("CN(c1ccc(OC(F)(F)F)cc1)N1CCN(c2nc(=O)c3cc(C(F)(F)F)cc([N+](=O)[O-])c3s2)CC1")
"> 4000"
>>> assay_value("O=c1nc(N2CCN(NCCC3CCCCC3)CC2)sc2c([N+](=O)[O-])cc(C(F)(F)F)cc12")
"> 2180"
>>> assay_value("O=c1nc(N2CCN(NCc3cc(F)cc(F)c3)CC2)sc2c([N+](=O)[O-])cc(C(F)(F)F)cc12")
"> 4000"
>>> assay_value("CC(c1ccc(OC(F)(F)F)cc1)N(C)N1CCN(c2nc(=O)c3cc(C(F)(F)F)cc([N+](=O)[O-])c3s2)CC1 (stereo unspecified)")
"> 4000"

Next compound, please.
// query So what's the measured selectivity ratio for this one? CON=C1CCC(N(C)N2CCN(c3nc(=O)c4cc(C(F)(F)F)cc([N+](=O)[O-])c4s3)CC2)CC1 (stereo unspecified)
// result > 4000

----------
Protocol: Selectivity index, ratio of CC50 for African green monkey Vero cells to MIC for multidrug resistance Mycobacterium tuberculosis 16995 clinical isolate
Type: toxicity
Test context: read-out: Selectivity Index
Measurement label: selectivity ratio

// query So what's the measured selectivity ratio for this one? O=c1nc(N2CCN(NCc3ccc(C(F)(F)F)cc3)CC2)sc2c([N+](=O)[O-])cc(C(F)(F)F)cc12
// result > 4000

// query Record: O=c1nc(N2CCN(NCc3ccc(Br)cc3)CC2)sc2c([N+](=O)[O-])cc(C(F)(F)F)cc12
// result > 4000

----------
Test system: Mycobacterium tuberculosis
Protocol: Antimycobacterial activity against multidrug resistance Mycobacterium tuberculosis 16995 clinical isolate incubated for 7 days by microplate alamar blue assay
Format: functional
Test context: Mycobacterium tuberculosis, 16995, 168 h; time 7 day
Quick reference for MIC among some compounds

>>> assay_value("CC(NN1CCN(c2nc(=O)c3cc(C(F)(F)F)cc([N+](=O)[O-])c3s2)CC1)c1ccc(OC(F)(F)F)cc1 (stereo not drawn)")
"0.0177 µg/mL"
>>> assay_value("Cc1cccc(F)c1CNN1CCN(c2nc(=O)c3cc(C(F)(F)F)cc([N+](=O)[O-])c3s2)CC1")
"0.0163 µg/mL"
>>> assay_value("Cc1ccc(CNN2CCN(c3nc(=O)c4cc(C(F)(F)F)cc([N+](=O)[O-])c4s3)CC2)cc1")
"< 0.016 µg/mL"
>>> assay_value("C/C(=N\\N1CCN(c2nc(=O)c3cc(C(F)(F)F)cc([N+](=O)[O-])c3s2)CC1)c1ccc(OC(F)(F)F)cc1")
"< 0.016 µg/mL"
>>> assay_value("O=c1nc(N2CCN(NCc3cc(F)cc(F)c3)CC2)sc2c([N+](=O)[O-])cc(C(F)(F)F)cc12")
"< 0.016 µg/mL"

// query So what's the measured MIC for this one? O=c1nc(N2CCN(NCc3ccc(F)cc3)CC2)sc2c([N+](=O)[O-])cc(C(F)(F)F)cc12
// result < 0.016 µg/mL

// query Record: O=c1nc(N2CCN(NC3CCCCC3)CC2)sc2c([N+](=O)[O-])cc(C(F)(F)F)cc12
// result < 0.016 µg/mL

// query Record: CON=C1CCC(N(C)N2CCN(c3nc(=O)c4cc(C(F)(F)F)cc([N+](=O)[O-])c4s3)CC2)CC1 (stereo not drawn)
// result < 0.016 µg/mL

----------
Quick reference for MIC among some compounds
Tested on: Mycobacterium tuberculosis
Protocol: Antimycobacterial activity against multidrug resistance Mycobacterium tuberculosis 16995 clinical isolate incubated for 7 days by microplate alamar blue assay
Format: functional
Test context: Mycobacterium tuberculosis, 16995, 168 h; time 7 day

// query So what's the measured MIC for this one? O=c1nc(N2CCN(NCc3cccc(C(F)(F)F)c3)CC2)sc2c([N+](=O)[O-])cc(C(F)(F)F)cc12
// result < 0.016 µg/mL

// query Record: O=c1nc(N2CCN(NCCC3CCCCC3)CC2)sc2c([N+](=O)[O-])cc(C(F)(F)F)cc12
// result 0.0294 µg/mL

// query Record: NNC(=O)c1ccncc1
// result > 10 µg/mL

// query Record: CO[C@H]1/C=C/O[C@@]2(C)Oc3c(C)c(O)c4c(O)c(c(/C=N/N5CCN(C)CC5)c(O)c4c3C2=O)NC(=O)/C(C)=C\C=C\[C@H](C)[C@H](O)[C@@H](C)[C@@H](O)[C@@H](C)[C@H](OC(C)=O)[C@@H]1C
// result > 10 µg/mL

----------
Quick reference for selectivity ratio among some compounds
Protocol: Selectivity index, ratio of CC50 for African green monkey Vero cells to MIC for multidrug resistance Mycobacterium tuberculosis 16995 clinical isolate
Type: toxicity
Test context: read-out: Selectivity Index

Illustrative cases are given below, each with its answer.
>>> assay_value("O=c1nc(N2CCN(NCC3CCCC3)CC2)sc2c([N+](=O)[O-])cc(C(F)(F)F)cc12")
"> 4000"
>>> assay_value("O=c1nc(N2CCN(Nc3ccc(C(F)(F)F)cc3)CC2)sc2c([N+](=O)[O-])cc(C(F)(F)F)cc12")
"> 4000"
>>> assay_value("Cc1ccc(CNN2CCN(c3nc(=O)c4cc(C(F)(F)F)cc([N+](=O)[O-])c4s3)CC2)cc1")
"> 4000"
>>> assay_value("O=c1nc(N2CCN(NCc3ccc(OC(F)(F)F)cc3)CC2)sc2c([N+](=O)[O-])cc(C(F)(F)F)cc12")
"> 4000"
>>> assay_value("O=c1nc(N2CCN(NCc3ccc(F)cc3)CC2)sc2c([N+](=O)[O-])cc(C(F)(F)F)cc12")
"> 4000"
>>> assay_value("CC(C)(C)c1ccc(CNN2CCN(c3nc(=O)c4cc(C(F)(F)F)cc([N+](=O)[O-])c4s3)CC2)cc1")
"> 4000"
>>> assay_value("O=c1nc(N2CCN(CC3CCCCC3)CC2)sc2c([N+](=O)[O-])cc(C(F)(F)F)cc12")
"> 4000"

Next compound, please.
// query So what's the measured selectivity ratio for this one? O=c1nc(N2CCN(Nc3ccc(OC(F)(F)F)cc3)CC2)sc2c([N+](=O)[O-])cc(C(F)(F)F)cc12
// result > 4000

----------
Protocol: Selectivity index, ratio of CC50 for African green monkey Vero cells to MIC for multidrug resistance Mycobacterium tuberculosis 16995 clinical isolate
Assay type: toxicity
Test context: read-out: Selectivity Index
Measurement label: selectivity ratio

Illustrative cases are given below, each with its answer.
>>> assay_value("CC(NN1CCN(c2nc(=O)c3cc(C(F)(F)F)cc([N+](=O)[O-])c3s2)CC1)c1ccc(OC(F)(F)F)cc1 (stereo unspecified)")
"> 3620"
>>> assay_value("COc1ccc(CNN2CCN(c3nc(=O)c4cc(C(F)(F)F)cc([N+](=O)[O-])c4s3)CC2)cc1")
"> 2360"
>>> assay_value("O=c1nc(N2CCN(NC3CCCCC3)CC2)sc2c([N+](=O)[O-])cc(C(F)(F)F)cc12")
"> 4000"
>>> assay_value("O=c1nc(N2CCN(NCc3ccc(Cl)cc3)CC2)sc2c([N+](=O)[O-])cc(C(F)(F)F)cc12")
"> 4000"
>>> assay_value("Cc1cccc(F)c1CNN1CCN(c2nc(=O)c3cc(C(F)(F)F)cc([N+](=O)[O-])c3s2)CC1")
"> 3930"

// query So what's the measured selectivity ratio for this one? O=c1nc(N2CCN(NCC3CCCCC3)CC2)sc2c([N+](=O)[O-])cc(C(F)(F)F)cc12
// result > 1830
